- Protocol Text: Cytotoxicity against African green monkey Vero 76 cells assessed as decrease in cell viability after 48 to 96 hrs by MTT assay
- Assay type: cell-based
- Condition Label: chlorocebus sabaeus
Response field label takes satisfied when CC50 is strictly below 80 µM and not satisfied in all other cases.

**Query** Input NS(=O)(=O)c1ccc(N2N=C(c3ccccc3)CC2c2ccccc2F)cc1 (stereo unspecified) ; condition: CC50 strictly below 80 µM. Does it hold?
**Result** satisfied

**Query** Input NS(=O)(=O)c1ccc(N2N=C(c3ccccc3)CC2c2cccc(Cl)c2)cc1 (stereo unspecified) ; condition: CC50 strictly below 80 µM. Does it hold?
**Result** satisfied

**Query** Input NS(=O)(=O)c1ccc(N2N=C(c3ccccc3)CC2c2ccccc2)cc1 (stereo unspecified) ; condition: CC50 strictly below 80 µM. Does it hold?
**Result** satisfied

**Query** Input NS(=O)(=O)c1ccc(N2N=C(c3ccc(Oc4ccccc4)cc3)CC2c2ccc(Cl)cc2)cc1 (stereo unspecified) ; condition: CC50 strictly below 80 µM. Does it hold?
**Result** not satisfied

**Query** Input Cc1ccccc1C1CC(c2ccccc2)=NN1c1ccc(S(N)(=O)=O)cc1 (stereo unspecified) ; condition: CC50 strictly below 80 µM. Does it hold?
**Result** satisfied

**Query** Input NS(=O)(=O)c1ccc(N2N=C(c3ccc(OCc4ccccc4)cc3)CC2c2ccccc2Cl)cc1 (stereo unspecified) ; condition: CC50 strictly below 80 µM. Does it hold?
**Result** not satisfied

**Query** Input COc1c(C)c2c(c(O)c1C/C=C(\C)CCC(=O)O)C(=O)OC2 [MYCOPHENOLIC ACID] ; condition: CC50 strictly below 80 µM. Does it hold?
**Result** satisfied

**Query** Input NC(=O)c1ncn([C@@H]2O[C@H](CO)[C@@H](O)[C@H]2O)n1 [RIBAVIRIN] ; condition: CC50 strictly below 80 µM. Does it hold?
**Result** not satisfied

**Query** Input Cc1ccc(C2CC(c3ccc(OCc4ccccc4)cc3)=NN2c2ccc(S(N)(=O)=O)cc2)cc1 (stereo unspecified) ; condition: CC50 strictly below 80 µM. Does it hold?
**Result** not satisfied

**Query** Input NS(=O)(=O)c1ccc(N2N=C(c3ccc(Oc4ccccc4)cc3)CC2c2cccc(F)c2)cc1 (stereo unspecified) ; condition: CC50 strictly below 80 µM. Does it hold?
**Result** satisfied

**Query** Input Cc1ccc(C2CC(c3ccccc3)=NN2c2ccc(S(N)(=O)=O)cc2)cc1 (stereo unspecified) ; condition: CC50 strictly below 80 µM. Does it hold?
**Result** satisfied

**Query** Input NS(=O)(=O)c1ccc(N2N=C(c3ccccc3)CC2c2cccc(F)c2)cc1 (stereo unspecified) ; condition: CC50 strictly below 80 µM. Does it hold?
**Result** satisfied

**Query** Input NS(=O)(=O)c1ccc(N2N=C(c3ccc(Oc4ccccc4)cc3)CC2c2ccc(F)cc2)cc1 (stereo unspecified) ; condition: CC50 strictly below 80 µM. Does it hold?
**Result** satisfied

**Query** Input Nc1nc2c(ncn2COCCO)c(=O)[nH]1 [ACYCLOVIR] ; condition: CC50 strictly below 80 µM. Does it hold?
**Result** not satisfied

====

- Test system: Enterovirus C
- Protocol Text: Antiviral activity against Enterovirus C Sabin […] infected in African green monkey Vero 76 cells assessed as protection against virus-induced cytopathic effect after 2 days by crystal violet staining-based plaque reduction assay
- Assay type: functional, organism-based
- Condition Label: Vero 76, 48 h
Measured Parameter: EC50

**Query** Give Enterovirus C EC50 for the following compound: NS(=O)(=O)c1ccc(N2N=C(c3ccccc3)CC2c2cccc(F)c2)cc1 (stereo not drawn)
**Result** > 24 µM

**Query** Give Enterovirus C EC50 for the following compound: NS(=O)(=O)c1ccc(N2N=C(c3ccc(Oc4ccccc4)cc3)CC2c2ccccc2F)cc1 (stereo not drawn)
**Result** > 96 µM

**Query** Give Enterovirus C EC50 for the following compound: Cc1ccccc1C1CC(c2ccccc2)=NN1c1ccc(S(N)(=O)=O)cc1 (stereo not drawn)
**Result** > 24 µM
